System: SN12C renal
Experiment: NCI-60 one-dose screen, 48 h
Conditions: 10 µM unless noted
About 83,000 compounds went through this panel and 20% of them were active in at least one assay; those are over-represented in the sample as a whole. Activity calls are given as the source filed them. How the source made its calls: active means growth percent below 10; inactive means the rest.
Permitted responses: active, inactive

Solved entries:
>  <compound>
COc1ccc(/C=C\c2cc(OC)c(OC)c(OC)c2)cc1OC(=O)c1cccc(Cn2cc(CCOC(=O)[C@H](N)Cc3cn(C)c4ccccc34)nn2)c1

>  <answer label>
inactive

$$$$
>  <compound>
CCN(CC)S(=O)(=O)c1ccc(OC)c(NC(=O)c2[nH]c(C)c3c2CCCCC3=O)c1

>  <answer label>
inactive

$$$$
>  <compound>
CCCCC/C(C=C(C#N)C#N)=C/c1ccccc1

>  <answer label>
inactive

$$$$

Exercise: Write down the call the test reported for this compound. Item: `CC(C)(C)c1cc(/C=N\NC(=O)/C=C/C=C/c2ccc3c(c2)OCO3)c(O)c(C(C)(C)C)c1`
Solution: inactive

Exercise: Write down the call the test reported for this compound. Item: `CN1CCN(CCCOc2cccc3nc(Nc4ccc(Cl)c(F)c4)ccc23)CC1`
Solution: inactive

Exercise: Write down the call the test reported for this compound. Item: `CC(=O)Nc1ccc(S(=O)(=O)Nc2cccc(-c3nc(-c4ccc(NC(=O)c5cccnc5)cc4Cl)no3)c2)cc1`
Solution: inactive

Exercise: Write down the call the test reported for this compound. Item: `COc1ccc(Nc2nc(SC)nc(-c3cccc([N+](=O)[O-])c3)c2C#N)cc1`
Solution: inactive

Exercise: Write down the call the test reported for this compound. Item: Cn1nc(N)c2cc([C@@H]3Nc4ccc5[nH]ncc5c4[C@H]4C5CCC(C5)[C@@H]34)ccc21 (stereo partly specified)
Solution: inactive

Exercise: Write down the call the test reported for this compound. Item: `CC(C)(C)CC(C)(C)c1ccc(OCCOCC[N+](C)(C)Cc2ccccc2)cc1`
Solution: active

Exercise: Write down the call the test reported for this compound. Item: `COc1ccc(C(=O)c2sc3nc(C)cc(C)c3c2N)cc1OC`
Solution: inactive

Exercise: Write down the call the test reported for this compound. Item: `CN(C)S(=O)(=O)c1ccc(S(=O)(=O)Nc2cccc(Cl)c2N2CCCCC2)cc1`
Solution: inactive

Exercise: Write down the call the test reported for this compound. Item: `Cc1ccc(O)c(N2C(=NCc3ccco3)NS(=O)(=O)c3cnccc32)c1`
Solution: inactive

Exercise: Write down the call the test reported for this compound. Item: `COc1nc2c(c(=O)n1C)CN(Cc1ccccc1)C=N2`
Solution: inactive

Exercise: Write down the call the test reported for this compound. Item: `O=C1/C(=C/c2cn(-c3ccccc3)nc2-c2ccccc2)SC(=S)N1CCc1ccccc1`
Solution: inactive

Exercise: Write down the call the test reported for this compound. Item: `O=C(/C=C/C=C/c1ccc2c(c1)OCO2)N/N=C\c1ccc(O)cc1O`
Solution: inactive

Exercise: Write down the call the test reported for this compound. Item: Nc1n[nH]c2ccc([C@@H]3Nc4ccc5cn[nH]c5c4[C@H]4C5CCC(C5)[C@@H]34)cc12 (stereo partly specified)
Solution: inactive

###

Tested on: SW-620 colon
Assay: NCI-60 one-dose screen, 48 h
Settings: 10 µM unless noted
This is part of a sample that, as a whole, favours compounds with a hit. Of some 83,000 tested, about 20% had one in any assay. Activity calls are given as the source filed them. The calls were made as follows: active = growth percent below 10; inactive = the rest.
Permitted responses: 1 for active, 0 for inactive

>  <compound>
Nc1nc2ncc(CCNc3ccc(C(=O)O)cc3)nc2c(=O)[nH]1

>  <system under test>
SW-620 colon

>  <answer label>
0

$$$$
>  <compound>
O=C(Cc1ccccc1Nc1c(Cl)cccc1Cl)NN1C(=O)/C(=C/c2ccc(Br)cc2)SC1=S

>  <system under test>
SW-620 colon

>  <answer label>
0

$$$$
>  <compound>
CCCc1cc(=O)n2c(C(=O)Nc3cccc(C(=O)OCC)c3)c(C(=O)Nc3ccc(F)cc3)sc2n1

>  <system under test>
SW-620 colon

>  <answer label>
0

$$$$
>  <compound>
CC(=O)c1cc(C(=O)c2ccc3c(c2)Sc2ccccc2N3)n2ccccc12

>  <system under test>
SW-620 colon

>  <answer label>
0

$$$$
>  <compound>
OCc1ccc(N2CCc3cccc(F)c3C2)cc1Cl

>  <system under test>
SW-620 colon

>  <answer label>
0

$$$$
>  <compound>
CNC(=O)c1cc(Oc2ccc(NC(=O)Nc3ccc(Cl)c(SC)c3)c(F)c2)ccn1

>  <system under test>
SW-620 colon

>  <answer label>
0

$$$$

Exercise: Write down the call the test reported for this compound. Item: `Cc1cc(C)nc(SC2=C(Nc3ccc(C)c(Cl)c3)C(=O)N(Cc3ccccc3)C2=O)n1`
Solution: 0

Exercise: Write down the call the test reported for this compound. Item: CCOc1cc2ncc(C#N)c(Nc3ccc(F)c(Cl)c3)c2cc1NC(=O)CC1CCSS1 (stereo not given)
Solution: 1

Exercise: Write down the call the test reported for this compound. Item: `COc1cccc(/C=C2\SC(=Nc3ccc(NC(C)=O)cc3)NC2=O)c1OC`
Solution: 0

Exercise: Write down the call the test reported for this compound. Item: `O=Nc1c(O)c(Cl)cc2ccccc12`
Solution: 0

Exercise: Write down the call the test reported for this compound. Item: `NC(=NCCCOc1ccc(Cl)cc1)Nc1ccc(Cl)cc1`
Solution: 0

Exercise: Write down the call the test reported for this compound. Item: `O=C(O)c1c(=O)cccc2ssc12`
Solution: 1

Exercise: Write down the call the test reported for this compound. Item: COc1cc(C)c(C2C(C#N)=C(N)Oc3n[nH]c(-c4cccs4)c32)cc1C(C)C (stereo not given)
Solution: 0
